All values here come from ChEMBL document CHEMBL3232841.

Measured log10 IC50 (UniProt:P00921)
Sequence (P00921 whole entry): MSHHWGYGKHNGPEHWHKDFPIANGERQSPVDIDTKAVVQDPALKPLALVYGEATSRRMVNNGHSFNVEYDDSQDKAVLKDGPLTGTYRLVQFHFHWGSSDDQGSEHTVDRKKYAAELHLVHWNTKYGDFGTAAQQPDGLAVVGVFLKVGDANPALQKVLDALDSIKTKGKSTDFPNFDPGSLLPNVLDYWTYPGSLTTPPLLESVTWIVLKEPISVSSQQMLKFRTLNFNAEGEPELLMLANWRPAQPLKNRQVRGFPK
The base-10 logarithm of IC50, taken with IC50 in µM, is what appears here.

structure-smiles: NS(=O)(=O)c1cccc(NC(=S)NC(=O)c2cccs2)c1
endpoint-name: log10 IC50
test-value: -1.28
--
structure-smiles: NS(=O)(=O)c1cccc(NC(=S)NC(=O)c2ccc(Cl)cc2)c1
endpoint-name: log10 IC50
test-value: 0.75
--
structure-smiles: NS(=O)(=O)c1cccc(NC(=S)NC(=O)c2ccc(Cl)cc2Cl)c1
endpoint-name: log10 IC50
test-value: 1.23
--
structure-smiles: NS(=O)(=O)c1cccc(NC(=S)NC(=O)c2cc3ccccc3oc2=O)c1
endpoint-name: log10 IC50
test-value: 1.13

# evaluate next
Q: Item under review: "NS(=O)(=O)c1cccc(NC(=S)NC(=O)c2cc([N+](=O)[O-])cc([N+](=O)[O-])c2)c1" . Reported log10 IC50?
A: 1.15
